Each entry below lists one item and its recorded koff value.
Biological target: T1, human CTGF (antigen of the Biacore assays) (human, UniProt P29279 27-349)
T1 construct: also called antigen human CTGF; human CTGF protein
T1 sequence (looked up): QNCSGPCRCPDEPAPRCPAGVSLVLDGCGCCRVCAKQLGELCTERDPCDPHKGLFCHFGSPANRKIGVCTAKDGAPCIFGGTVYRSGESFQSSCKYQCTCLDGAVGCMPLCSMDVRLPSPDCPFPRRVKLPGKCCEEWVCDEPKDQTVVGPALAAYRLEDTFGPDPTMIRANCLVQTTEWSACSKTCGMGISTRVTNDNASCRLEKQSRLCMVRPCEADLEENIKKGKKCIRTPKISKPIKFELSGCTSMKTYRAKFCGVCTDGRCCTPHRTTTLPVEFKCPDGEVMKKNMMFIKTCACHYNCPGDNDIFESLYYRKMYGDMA
Assay: Biacore, antibody captured on Protein A, CTGF in flow, 1:1 fit
attributeMeasured: koff (s⁻¹)

INSERT INTO measurements (binder, reportedvalue) VALUES
  ('Hu164-57wl (antibody, human IgG1, lambda, V domains shown) VH: EVTLKESGPVLVKPTETLTLTCTVSGFSLSTFGVHWIRQPPGKALEWLAVIWRRGGTDYNAAFMSRLTISKDTSKSQVVLTMTNMDPVDTATYYCARDGGFDYWGQGTTVTVSS VL: ETVVTQEPSLTVSPGGTVTLTCRSSIGAVTTSNYANWVQQKPGQAFRGLIGGTSNRAPWTPARFSGSLLGGKAALTLSGVQPEDEAEYYCALWYSTHYVFGGGTKLTVLG', 0.00294),
  ('Hu95-41wk (antibody, human IgG1, kappa, V domains shown) VH: EVQLVQSGAEVKKPGASVKVSCKASGFTFTNYDIHWVKQAPGQRLEWIGLVYPYNGGTAYNQKFKDKATLTFDTSASTAYMELSSLRSEDTAVYYCARWGLIPGTTSYFDVWGQGTTVTVSS VL: EIVLTQSPATLSLSPGERATLSCRASSSVSYIHWYQQKPGQAPRPWIYATSNLASGIPARFSGSGSGTDYTLTISRLEPEDFAVYYCQQWNSNPWTFGGGTKVEIKR', 0.0408);

These data points were gathered from patent US20220324953A1.
